Assay: qHTS Assay for Lipid Storage Modulators (AID 1519); further: on the % scale 0 is the no-effect control and ±100 the full control effect
Conditions: Drosophila S3 cells, BODIPY lipid droplet/cell ratio, laser cytometry; at 57.5 µM (top of the series); cells loaded with oleic acid
Results filed as inconclusive are left out. Activity calls are given as the source filed them. The call rests on the fitted dose curve.
Record form. Attribute: activity change, negative = inhibition. Fill in for each entry.

Ask | # input molecule: `CN[C@@H]1[C@H](O)[C@H](NC)[C@H]2O[C@@]3(O)C(=O)C[C@@H](C)O[C@H]3O[C@@H]2[C@H]1O` ; wanted: its activity change, negative = inhibition
Reply | -5.49% (inactive)

Ask | # input molecule: `NC(=O)c1ccc([N+](=O)[O-])cc1Cl` ; wanted: its activity change, negative = inhibition
Reply | -1.34% (inactive)

Ask | # input molecule: `CCN(CC)CCOC(=O)C(c1ccccc1)c1ccccc1` ; wanted: its activity change, negative = inhibition
Reply | -3.74% (inactive)

Ask | # input molecule: `NS(=O)(=O)c1cc2c(cc1C(F)(F)F)NCNS2(=O)=O` ; wanted: its activity change, negative = inhibition
Reply | 2.96% (inactive)

Ask | # input molecule: NC(=O)NC1NC(=O)NC1=O (stereo not drawn) ; wanted: its activity change, negative = inhibition
Reply | 4.87% (inactive)

Ask | # input molecule: C=CCSCC1Nc2cc(Cl)c(S(N)(=O)=O)cc2S(=O)(=O)N1 (stereo not drawn) ; wanted: its activity change, negative = inhibition
Reply | 8.24% (inactive)

Ask | # input molecule: O=C(O)CCCCC1CCSS1 (stereo not drawn) ; wanted: its activity change, negative = inhibition
Reply | 3.99% (inactive)

Ask | # input molecule: CN1CCCN=C1COC(=O)C(O)(c1ccccc1)C1CCCCC1 (stereo not drawn) ; wanted: its activity change, negative = inhibition
Reply | 5.7% (inactive)

Ask | # input molecule: `Cc1cccc(C(=O)O)c1O` ; wanted: its activity change, negative = inhibition
Reply | 6.75% (inactive)

Ask | # input molecule: COc1ccccc1OCC(O)CO (stereo not drawn) ; wanted: its activity change, negative = inhibition
Reply | 8.3% (inactive)

Ask | # input molecule: `Cn1c([N+](=O)[O-])cnc1COC(N)=O` ; wanted: its activity change, negative = inhibition
Reply | 7.17% (inactive)

Ask | # input molecule: `CC(=O)NS(=O)(=O)c1ccc(N)cc1` ; wanted: its activity change, negative = inhibition
Reply | 7% (inactive)

Ask | # input molecule: `CN1C(C)(C)CCCC1(C)C` ; wanted: its activity change, negative = inhibition
Reply | 10.8% (inactive)

Ask | # input molecule: `CC(=O)Nc1ccccc1` ; wanted: its activity change, negative = inhibition
Reply | 8.44% (inactive)

Ask | # input molecule: `CC(=O)Nc1cccc(O)c1` ; wanted: its activity change, negative = inhibition
Reply | 14.9% (inactive)

Ask | # input molecule: `O=C(O)c1ccccc1C(=O)Nc1ccc(S(=O)(=O)Nc2nccs2)cc1` ; wanted: its activity change, negative = inhibition
Reply | 12.9% (inactive)

Ask | # input molecule: `CNCc1ccccc1` ; wanted: its activity change, negative = inhibition
Reply | 4.39% (inactive)

Ask | # input molecule: CC1CC(OC(=O)c2ccccc2O)CC(C)(C)C1 (stereo not drawn) ; wanted: its activity change, negative = inhibition
Reply | 7.41% (inactive)

Ask | # input molecule: `Cc1cc(O)cc(C)c1Cl` ; wanted: its activity change, negative = inhibition
Reply | 11.1% (inactive)

Ask | # input molecule: `C[N+](C)(C)CC[N+]1(C)Cc2c(Cl)c(Cl)c(Cl)c(Cl)c2C1` ; wanted: its activity change, negative = inhibition
Reply | 0.877% (inactive)

Ask | # input molecule: `Cc1c(NC(=O)c2cccnc2)c(=O)n(-c2ccccc2)n1C` ; wanted: its activity change, negative = inhibition
Reply | 5.04% (inactive)

Ask | # input molecule: `Cc1c(NC(C)C)c(=O)n(-c2ccccc2)n1C` ; wanted: its activity change, negative = inhibition
Reply | 9.46% (inactive)

Ask | # input molecule: `Cc1[nH]c(C)c(Cl)c(=O)c1Cl` ; wanted: its activity change, negative = inhibition
Reply | 7.41% (inactive)

Ask | # input molecule: `NC(N)=NCCN1CCCCCCC1` ; wanted: its activity change, negative = inhibition
Reply | 6.2% (inactive)

Ask | # input molecule: `CCN(CC)C(=O)c1cccc(C)c1` ; wanted: its activity change, negative = inhibition
Reply | 7.23% (inactive)

Ask | # input molecule: `CC(=O)NCc1c(I)c(NC(C)=O)c(I)c(C(=O)O)c1I` ; wanted: its activity change, negative = inhibition
Reply | 14.5% (inactive)

Ask | # input molecule: `C/C=C/C(=O)N(CC)c1ccccc1C` ; wanted: its activity change, negative = inhibition
Reply | 9.1% (inactive)

Ask | # input molecule: `O=C(CCBr)N1CCN(C(=O)CCBr)CC1` ; wanted: its activity change, negative = inhibition
Reply | 9.22% (inactive)
